# System: INS-1E rat beta cells, no cytokines, CellTiter-Glo ATP, 48 h
# protocol.notes: cytokine-free beta-cell viability effect – INS-1E rat cells, ATP luminescence, cherry pick, counter-screen for beta-cell apoptosis protection project, dose response (AID 463229)
parameter.measured: AC50

The following compounds have reported results that may help.
compound=CC1=C(C#N)C(C(F)(F)F)(C(F)(F)F)N=C(c2ccco2)N1 parameter_measured=AC50 observed_measurement="12.8 µM"
compound="Cc1ccc(C)c(NC(=S)NC(NC(=O)Cc2cccc3ccccc23)C(Cl)(Cl)Cl)c1 (stereo not drawn)" parameter_measured=AC50 observed_measurement="5.67 µM"

Continue with the compound presented below.
What reported AC50 corresponds to `CCn1c(/C=C/c2ccc([N+](=O)[O-])o2)nc2ccccc2c1=O` on INS-1E rat beta cells, no cytokines, CellTiter-Glo ATP, 48 h? 4.08 µM

---

# Tested on: INS-1E rat beta cells, no cytokines, CellTiter-Glo ATP, 48 h
# protocol.notes: cytokine-free beta-cell viability effect – INS-1E rat cells, ATP luminescence, cherry pick, counter-screen for beta-cell apoptosis protection project, dose response (AID 463229)
parameter.measured: AC50

molecule=CN(C)CCOc1ccc(-c2c(-c3ccccc3)sc3ccccc23)cc1 observed_measurement="12.8 µM"
molecule=CCOc1cc(S(=O)(=O)NCc2ccncc2)ccc1Cl observed_measurement="1.19 µM"
molecule="COc1ccc(C(NC(C)=O)c2cc(Cl)c3cccnc3c2O)cc1OC (centres undefined)" observed_measurement="7.62 µM"

Continue with the molecule presented below.
Which measured AC50 value corresponds to CC1CN(S(=O)(=O)c2ccc(C(=O)NCCCn3ccnc3)cc2)CC(C)O1 (centres undefined) ? 1.39 µM

---

# Test system: INS-1E rat beta cells, no cytokines, CellTiter-Glo ATP, 48 h
# protocol.notes: cytokine-free beta-cell viability effect – INS-1E rat cells, ATP luminescence, cherry pick, counter-screen for beta-cell apoptosis protection project, dose response (AID 463229)
parameter.measured: AC50

smiles_text=COc1ccc(/C=N/Nc2cc(C)nc(-n3nc(C)cc3C)n2)c(OC)c1 observed_measurement="18.4 µM"
smiles_text=Cc1nc2c(=O)n(C)c(=O)nc-2n(C)n1 observed_measurement="2.06 µM"
smiles_text=O=C1C=C(Nc2ccc(O)cc2)C(=O)c2ccccc21 observed_measurement="13.6 µM"
smiles_text=CCn1c(C)nc2cc(C(=O)N/N=C/c3cccc(O)c3O)ccc21 observed_measurement="8.42 µM"

Continue with the molecule presented below.
Which measured AC50 value corresponds to `Cc1nc2ccccn2c1C(=O)/C=C/c1cccc([N+](=O)[O-])c1` ? 7.93 µM

---

Property: AC50; scope: individual molecules
# Test system: INS-1E rat beta cells, no cytokines, CellTiter-Glo ATP, 48 h
# protocol.notes: cytokine-free beta-cell viability effect – INS-1E rat cells, ATP luminescence, cherry pick, counter-screen for beta-cell apoptosis protection project, dose response (AID 463229)

molecule=C/C(=N\NC(=O)c1cc(-c2cccnc2)nc2ccccc12)c1ccccc1O study_target="INS-1E rat beta cells, no cytokines, CellTiter-Glo ATP, 48 h" parameter_measured=AC50 observed_measurement="5.74 µM"

What reported AC50 corresponds to `CCCC[n+]1ccn(C2=C([O-])c3ccccc3C(=O)/C2=N\S(=O)(=O)c2ccc(Br)cc2)c1` on INS-1E rat beta cells, no cytokines, CellTiter-Glo ATP, 48 h? 15.2 µM

What reported AC50 corresponds to `COc1ccc(NS(=O)(=O)c2ccc(-c3coc(C)n3)cc2)cc1OC` on INS-1E rat beta cells, no cytokines, CellTiter-Glo ATP, 48 h? 4.39 µM

What reported AC50 corresponds to CCC1CCCCN1S(=O)(=O)c1ccc(NC(=O)c2nc(S(C)(=O)=O)ncc2Cl)cc1 (stereo unspecified) on INS-1E rat beta cells, no cytokines, CellTiter-Glo ATP, 48 h? 8.01 µM

What reported AC50 corresponds to `c1ccc(CNc2c3ccccc3nc3ccccc23)cc1` on INS-1E rat beta cells, no cytokines, CellTiter-Glo ATP, 48 h? 11.5 µM

What reported AC50 corresponds to `COc1cccc(Cn2c(NCc3ccco3)nc3c2c(=O)n(C)c(=O)n3C)c1` on INS-1E rat beta cells, no cytokines, CellTiter-Glo ATP, 48 h? 6.42 µM

What reported AC50 corresponds to `CCOC(=O)c1cnc(-n2nc(C)cc2C)nc1NNc1cc(C)nc(-c2ccccc2)n1` on INS-1E rat beta cells, no cytokines, CellTiter-Glo ATP, 48 h? 7.19 µM

What reported AC50 corresponds to `CC1CCN(Cc2c(C(=O)N/N=C/c3ccccc3O)nnn2-c2nonc2N)CC1` on INS-1E rat beta cells, no cytokines, CellTiter-Glo ATP, 48 h? 5.67 µM
